Item-by-item account of self-splicing fitness (ln)
test protocol: self-splicing fitness, log relative to wild type (ln ratio); higher = more splicing; Tetrahymena group I intron in knt gene, E. coli kanamycin selection, DiMSum; sequences stand for … in CUCUCU…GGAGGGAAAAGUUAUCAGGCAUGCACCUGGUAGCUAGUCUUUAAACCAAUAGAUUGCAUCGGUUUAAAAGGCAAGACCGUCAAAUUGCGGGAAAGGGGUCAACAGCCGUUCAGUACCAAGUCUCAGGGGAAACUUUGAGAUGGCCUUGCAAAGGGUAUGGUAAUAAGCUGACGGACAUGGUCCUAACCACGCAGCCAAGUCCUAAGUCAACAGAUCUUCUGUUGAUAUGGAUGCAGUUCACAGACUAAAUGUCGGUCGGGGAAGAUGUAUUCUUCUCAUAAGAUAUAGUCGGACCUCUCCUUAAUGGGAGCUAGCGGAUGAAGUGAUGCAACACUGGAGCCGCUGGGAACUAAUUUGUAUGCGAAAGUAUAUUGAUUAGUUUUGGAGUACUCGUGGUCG;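 note: selection with 25 µg/mL kanamycin versus none on LB agar overnight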
measurement context: 37 °C
Number only, no unit.

Example entries begin here.
CUGGAGCAAUAUUACGGUAA :: -2.89
AGUUAGCAAUAUUACGCAGU :: -2.62
AGCUAGCAAUAUUACGCAAC :: -1.86
UGGAAGCAAUAUUACGCACA :: 0.0258
GCUAAGCAAUAUUACGAAUA :: -1.73

self-splicing fitness (ln) in this record for GGUAAGCAAUAUUACGACGG : -2.84

self-splicing fitness (ln) in this record for CCCCAGCAAUAUUACGUACA : -3.5

self-splicing fitness (ln) in this record for CGAGAGCAAUAUUACGAGCU : -3.02

self-splicing fitness (ln) in this record for AUAAAGCAAUAUUACGGUAA : -0.709

self-splicing fitness (ln) in this record for AAUUAGCAAUAUUACGACGU : -0.3

* * *

test protocol: self-splicing fitness, log relative to wild type (ln ratio); higher = more splicing; Tetrahymena group I intron in knt gene, E. coli kanamycin selection, DiMSum; sequences stand for … in CUCUCU…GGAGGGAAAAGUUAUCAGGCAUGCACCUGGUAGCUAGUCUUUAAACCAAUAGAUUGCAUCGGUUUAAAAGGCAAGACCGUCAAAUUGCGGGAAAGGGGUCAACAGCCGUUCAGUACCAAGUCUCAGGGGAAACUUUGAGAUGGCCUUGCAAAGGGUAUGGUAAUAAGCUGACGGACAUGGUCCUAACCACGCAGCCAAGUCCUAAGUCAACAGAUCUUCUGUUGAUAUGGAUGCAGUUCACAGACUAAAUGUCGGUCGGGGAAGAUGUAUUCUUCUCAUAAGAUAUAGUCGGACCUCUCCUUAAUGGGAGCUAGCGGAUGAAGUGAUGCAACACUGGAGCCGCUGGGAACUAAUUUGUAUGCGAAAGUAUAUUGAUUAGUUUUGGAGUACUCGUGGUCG
measurement context: 37 °C
Item-by-item account of self-splicing fitness (ln)

self-splicing fitness (ln) in this record for CAGCAGCAAUAUUACGAUAG : -0.0435

self-splicing fitness (ln) in this record for CCUAAGCAAUAUUACGCGGC : -2.13

self-splicing fitness (ln) in this record for GUGCAGCAAUAUUACGCGCU : -1.77

self-splicing fitness (ln) in this record for GACUAGCAAUAUUACGAUCA : -0.314

self-splicing fitness (ln) in this record for UCAGAGCAAUAUUACGGGUG : -1.46

self-splicing fitness (ln) in this record for AAUUAGCAAUAUUACGGACA : -1.28

self-splicing fitness (ln) in this record for GGUCAGCAAUAUUACGCGAA : 0.00884
